- System: SF-268
- assay method text: NCI tumour cell line growth inhibition, 48 h
Activity calls are given as the source filed them. No stated cut-off is given here; in the data, active = GI50 up to about 1.1 µM and inactive = higher.
GI50 values, listed per item
outcome measure: GI50

compound	result
CC1(C)CCC2=C(O1)c1ccccc1C(=O)C2=O	0.682 µM (active)
O=C(O)c1nc(-c2ccc(Cl)c(Cl)c2)nc2ccc(Cl)cc12	63 µM (inactive)
O=S(=O)(Oc1ccc2ccccc2c1-c1c(OS(=O)(=O)C(F)(F)F)ccc2ccccc12)C(F)(F)F	> 100 µM (inactive)
C=CC1=C(C)c2cc3[nH]c(c4c5nc(cc6[nH]c(cc1n2)c(C)c6CC)C=C5C(=O)C4C(=O)OC)C(CCC(=O)OC/C=C(\C)CCCC(C)CCCC(C)CCCC(C)C)C3C.C=CC1=C(C)c2cc3[nH]c(c4c5nc(cc6[nH]c(cc1n2)c(C=O)c6CC)C=C5C(=O)C4C(=O)OC)C(CCC(=O)OC/C=C(\C)CCCC(C)CCCC(C)CCCC(C)C)C3C (centres undefined)	> 100 µM (inactive)

----------
- System: SF-268
- assay method text: NCI tumour cell line growth inhibition, 48 h
The source made the active and inactive calls. Rule as the data show it: active = GI50 up to about 1.1 µM and inactive = higher.
Outcome codes: active, inactive

compound	qualitative label
O=C(C1C(c2ccccc2)N1C(c1ccccc1)c1ccccc1)C1C(c2ccccc2)N1C(c1ccccc1)c1ccccc1 (stereo unspecified)	inactive
CCOC(=O)C(C/C=C/CO)N(C)C(=O)OC(C)(C)C (stereo unspecified)	inactive
COC(=O)C1=Cc2c(OC)cc(OC)c(OC)c2[C@H](c2cc(OC)c(OC)cc2OC)C1C(=O)OC (stereo partly specified)	inactive
CCCCCCCCCCCCCCCCCCNc1ccn(C2OC(COP(=O)(O)OCC3OC(n4ccc(N)nc4=O)C(O)C3O)C(O)C2O)c(=O)n1 (stereo unspecified)	inactive
CCC1(C)C=Cc2c(cc(OC)c3c(=O)c4ccccc4n(C)c23)O1 (stereo unspecified)	inactive
COc1ccc(CCc2ccc3c(c2)OCO3)cc1	inactive
C[C@]12CCC3c4ccc(O)cc4CC[C@H]3C1CC(=O)NC2=O (stereo partly specified)	inactive
CC(=O)/C(=C/NC(=S)Nc1ccc(Cl)c(Cl)c1)C(=O)Nc1ccccc1C	inactive
COc1ccc(C2=C(N)c3c(Cl)cccc3C2=O)cc1	inactive
COC(=O)CCC(NC(=S)N/N=C(\C)c1nccs1)C(=O)OC (stereo unspecified)	inactive
Cc1cc2nc3c(C#N)c4c(c(Nc5ccc(Cl)cc5)n3c2cc1C)CCC4	inactive
CC1CC(C)(O)C2C3(C)CCCC2(COC3=O)C12CCC1(CCOC1=O)O2 (stereo unspecified)	inactive
COC(=O)C(=O)Nc1cc2c3c(c1)Oc1cccc4c1C3(C)c1c(cccc1O2)O4	inactive
c1ccc(-c2ccc(-c3ccc(C4=NCCN4)cc3)o2)cc1	inactive
O=c1cc(N2CCCC2)[nH]c(=O)n1-c1ccccc1	inactive
CCOC(=O)c1sc2nc(SC)nc3c2c1NC(=O)CN3c1cccc(F)c1	inactive
CN1C(=S)CSc2ccccc21	inactive
O=C(c1ccccc1)c1c(CC(O)c2ccccc2)n(C(=O)c2ccccc2)c2ccccc12 (stereo unspecified)	inactive
COc1ccc(C(c2ccc(C(C)C)cc(=O)c2O)c2ccc3cccnc3c2O)cc1 (stereo unspecified)	active
COc1cc(C2C3=C(N=C4SC(C(C)=O)=C(C)N42)c2ccccc2CC3)cc(OC)c1OC (stereo unspecified)	inactive
CCc1ccc(COC(=O)C2=C(C)NC(C)=C(C(=O)OCc3ccc(CC)cn3)C2C2=COCCO2)nc1	inactive

----------
- Tested on: OVCAR-4
- assay method text: NCI tumour cell line growth inhibition, 48 h
Calls of active or inactive are those of the source. Rule as the data show it: active = GI50 up to about 1.1 µM and inactive = higher.
outcome measure: GI50

molecule	result
CC(NC(=O)C(N)CC(=O)O)NC(=O)N1CCOCC1 (stereo unspecified)	> 100 µM (inactive)
CCC(=O)OCN(C)c1nc(N(C)COC(=O)CC)nc(N(C)COC(=O)CC)n1	30.5 µM (inactive)
CC(C)(C)O/N=C/c1cc(NC(=S)c2ccsc2)ccc1Cl	14.6 µM (inactive)
COc1cc(C2C3=C(N=C4SC(C(C)=O)=C(C)N42)c2ccccc2CC3)cc(OC)c1OC (stereo unspecified)	> 100 µM (inactive)
C/C(=C\[Si](C)(C)c1ccco1)C(C)(O)[C@H](C)O (stereo partly specified)	2.9 µM (inactive)
COc1cc(C/C=C/c2ccccc2)c(OC)cc1O [VIOLASTYRENE]	18 µM (inactive)
CC(C)(CO)N1C(=O)c2ccccc2C1(O)c1ccc(Cl)cc1 (stereo unspecified)	94 µM (inactive)
C#C[C@]1(O)CC[C@H]2[C@@H]3CCC4=C/C(=N/OCCN(C)C)CC[C@]4(C)[C@H]3CC[C@@]21C	> 100 µM (inactive)
Oc1cc(-c2ccccn2)nc2cc(F)ccc12	> 100 µM (inactive)
COc1ccc(/C=C/c2cc(O)cc(OC3OC(CO)C(O)C(O)C3O)c2)cc1O (stereo unspecified)	> 100 µM (inactive)
O=C(CCc1ccccc1)CC1OC(=O)C(Cl)=C1Cl (stereo unspecified)	96.4 µM (inactive)
O=S(=O)(c1ccccc1)N1CCC1c1ccccc1 (stereo unspecified)	89.5 µM (inactive)
CC(C)[C@H](CCl)NC(=O)c1cccc(C(=O)N[C@H](CCl)C(C)C)n1 (stereo in doubt)	> 100 µM (inactive)
Clc1ccccc1C(n1ncc2ccccc21)n1ncc2ccccc21	51.6 µM (inactive)
NC(=O)c1cc([N+](=O)[O-])cc([N+](=O)[O-])c1 [NITROMIDE]	> 100 µM (inactive)
O=C(CCc1cccc(O)c1)NCCCNC(=O)CCc1cccc(O)c1	> 100 µM (inactive)
OC1C2CN3CCN(C2)CC1(c1ccccc1)C3 (stereo unspecified)	> 100 µM (inactive)
NC(=S)NNC(=O)CCC(=O)Nc1ccc(Cl)cc1Cl	> 100 µM (inactive)
COc1ccc(C(=O)C(C(=O)C(=O)NC2C3CC4CC(C3)CC2C4)c2ccc(OC)cc2)cc1 (stereo unspecified)	> 100 µM (inactive)
CCCN(CCCCC(NC(C)=O)C(=O)NCc1ccccc1)C(=O)N(C)N=O (stereo unspecified)	> 100 µM (inactive)
CCN1c2ccccc2-c2c3c1cc(C)cc3c1ccccc1[n+]2CC	1.57 µM (inactive)
Cn1c(=O)c2nc3c(=O)n(C)c(=O)n(CC(N)=O)c3nc2n(C)c1=O	> 100 µM (inactive)
N#Cc1nnn(-c2ccc(Br)cc2)c1O	> 100 µM (inactive)
S=c1nc(N2CCCCC2)ss1	38.2 µM (inactive)
C[C@]12CC[C@H](OC3OC(CO)C(O)C(O)C3O)C[C@H]1CC[C@@H]1[C@@H]2CC[C@]2(C)[C@@H](C3=CCOC3=O)CC[C@]12O (stereo partly specified) [ACTODIGIN]	41 µM (inactive)
CC(=O)N1N=C(c2cc(C)ccc2O)CC1c1cccc(Cl)c1 (stereo unspecified)	13.7 µM (inactive)
C=CC1(C)CCC2=C(CCC3C(C)(C(=O)OC)CCCC23C)C1=O (stereo unspecified)	14.7 µM (inactive)
CN(C)CC1(C)CC/C(=C\c2ccccc2)C1=O (stereo unspecified)	> 100 µM (inactive)
CCOC(=O)C(C/C=C/CO)N(C)C(=O)OC(C)(C)C (stereo unspecified)	> 100 µM (inactive)
Nc1c2c(nc3cc(F)c(F)cc13)CCC2	58.2 µM (inactive)
O=C1Nc2ccccc2C(=O)/C1=C/NC(=S)NCCc1ccccc1	> 100 µM (inactive)
COC(=O)C(=O)Nc1cc2c3c(c1)Oc1cccc4c1C3(C)c1c(cccc1O2)O4	> 100 µM (inactive)
COC(=O)[C@]1(C)CCC[C@@]2(C)C1CCC1=CC3(C(C)C)CCC12OO3 (stereo partly specified)	51.3 µM (inactive)
CCOC(=O)CNC(=O)C(CSCc1ccc(Br)cc1)NC(=O)CCC(N)C(=O)OCC (stereo unspecified)	> 50 µM (inactive)
O=C(CCOS(=O)(=O)CF)N1CCN(C(=O)CCOS(=O)(=O)CF)CC1	> 100 µM (inactive)
CCCCOC(C)(C)/C=C/C(O)[C@](C)(O)[C@H]1[C@H](O)C[C@@]2(C)[C@@H]3CCc4c(cc(OC5OC(CO)C(O)C(O)C5O)c(O)c4C)C3(C)C(=O)C[C@]12C (stereo partly specified)	> 100 µM (inactive)
N#C[C-](C#N)[n+]1ccc(Cl)cc1	24.9 µM (inactive)
N#Cc1nc(COCCOCc2ccc(F)cc2)oc1N	> 100 µM (inactive)
CSS(C)(=O)=O	27.4 µM (inactive)
COCCOCN(C(=O)C1=CCC2(CC1)OCCO2)c1ccccc1I	> 50 µM (inactive)
O=C(O)Cc1ccc(Nc2nc3ccccc3nc2C(=O)O)cc1	> 100 µM (inactive)

----------
- System: U-251
- assay method text: NCI tumour cell line growth inhibition, 48 h
The source made the active and inactive calls. No stated cut-off is given here; in the data, active = GI50 up to about 1.1 µM and inactive = higher. Starred links: 1 amine or outer side, 2 acyl side, 3 side chain; linkers in the order of their positions; H or OH if unused. Non-standard residues stand in square brackets, D forms with d. Residues, ends and D or L forms follow the SMILES beside them. *: point of attachment. X47 = CCC(=O)CC1CC(C)CC(C(=O)[*:2])N1[*:1]; X46 = CCCCCCCCC(C)C(=O)*; Aib = CC(C)(N)C(=O)O; X48 = CC(CN(C)CCO)N*
Outcome codes: 1.0 for active, 0.0 for inactive

compound	qualitative label
CCCCCCCCC(C)C(=O)N1CCCC1C(=O)N1C(CC(=O)CC)CC(C)CC1C(=O)NC(C)C(=O)NC(C)(C)C(=O)NC(C)(C)C(=O)NC(C(=O)NC(C)C(=O)NC(C)(C)C(=O)NC(C)(C)C(=O)NC(C)CN(C)CCO)C(C)CC (configuration not stated) (X46-P[X47]A[Aib][Aib]IA[Aib][Aib]-X48; configuration not given here)	1.0
C/C=C/C[C@@H](C)C(=O)C1C(=O)N[C@@H](C(C)C)C(=O)N(C)CC(=O)N(C)[C@@H](CC(C)C)C(=O)N[C@@H](C(C)C)C(=O)N(C)[C@@H](CC(C)C)C(=O)N[C@@H](C)C(=O)N[C@@H](C)C(=O)N(C)[C@@H](CC(C)C)C(=O)N(C)[C@@H](CC(C)C)C(=O)N(C)[C@@H](C(C)C)C(=O)N1C (some centres not stated)	0.0
O=C(N/C(=C/c1ccc(Cl)cc1)c1nc2ccccc2c(=O)n1Nc1ccc([N+](=O)[O-])cc1[N+](=O)[O-])c1ccccc1	0.0
O=S(=O)(O)c1ccc2c(/N=N/c3cccc4ccccc34)c(O)c(S(=O)(=O)O)cc2c1	0.0
CN(C)N1C(=O)S/C(=C\c2ccc([N+](=O)[O-])cc2)C1=O	0.0
COc1cc(C(=C2SCCS2)c2nccc3cc(OC)c(OC)cc23)c([N+](=O)[O-])cc1OC	0.0
O=C(CCc1ccccc1)CC1OC(=O)C(Cl)=C1Cl (configuration not stated)	0.0
